Test system: BEN
test_description: relative viability (nuclei count vs DMSO), 5 days (fraction); higher = more cells survive
run_parameters: first compound 0.8 µM
We label by threshold. Values of relative viability strictly beneath 0.7 are TRUE. Values of 0.7 and up are FALSE.

Is relative viability of COc1nc(C)cnc1NS(=O)(=O)c1cccnc1-c1ccc(-c2nnco2)cc1 [Zibotentan] + Nc1nc2[nH]cc(CCc3ccc(C(=O)N[C@@H](CCC(=O)O)C(=O)O)cc3)c2c(=O)[nH]1 [Pemetrexed] (partner 0.2 µM) strictly below 0.7?
FALSE

Is relative viability of COc1nc(C)cnc1NS(=O)(=O)c1cccnc1-c1ccc(-c2nnco2)cc1 [Zibotentan] + Nc1ncn([C@H]2C[C@H](O)[C@@H](CO)O2)c(=O)n1 [Decitabine] (partner 2 µM) strictly below 0.7?
FALSE

Is relative viability of O=c1cc(-c2cccc3c2Sc2ccccc2S3)oc(N2CCOCC2)c1 + COc1cc2c(Oc3ccc(NC(=O)C4(C(=O)Nc5ccc(F)cc5)CC4)cc3F)ccnc2cc1OCCCN1CCOCC1 [Foretinib] (partner 0.25 µM) strictly below 0.7?
TRUE

Is relative viability of O=c1cc(-c2cccc3c2Sc2ccccc2S3)oc(N2CCOCC2)c1 + O=C(c1cc(Cc2n[nH]c(=O)c3ccccc23)ccc1F)N1CCN(C(=O)C2CC2)CC1 [Olaparib] (partner 8 µM) strictly below 0.7?
FALSE

Is relative viability of COc1nc(C)cnc1NS(=O)(=O)c1cccnc1-c1ccc(-c2nnco2)cc1 [Zibotentan] + CC(=O)c1c(C)c2cnc(Nc3ccc(N4CCNCC4)cn3)nc2n(C2CCCC2)c1=O [Palbociclib] (partner 0.5 µM) strictly below 0.7?
TRUE

Is relative viability of O=c1cc(-c2cccc3c2Sc2ccccc2S3)oc(N2CCOCC2)c1 + COc1cccc2cc(-c3nc([C@H]4CC[C@H](C(=O)O)CC4)n4ncnc(N)c34)[nH]c12 [OSI-027] (partner 0.5 µM) strictly below 0.7?
TRUE

---

Record form. Attribute: relative viability. Fill in for each entry.
Tested on: PC-3 [JPC-3]
test_description: relative viability (nuclei count vs DMSO), 5 days (fraction); higher = more cells survive
run_parameters: first compound 1 µM

Measured relative viability, CCN(CC)CCCCNc1ncc2cc(-c3cc(OC)cc(OC)c3)c(NC(=O)NC(C)(C)C)nc2n1 + CS(=O)(=O)CCNCc1ccc(-c2ccc3ncnc(Nc4ccc(OCc5cccc(F)c5)c(Cl)c4)c3c2)o1 [Lapatinib] (partner 2 µM) : 0.446

Measured relative viability, CCN(CC)CCCCNc1ncc2cc(-c3cc(OC)cc(OC)c3)c(NC(=O)NC(C)(C)C)nc2n1 + C[C@@H](Oc1cc(-c2cnn(C3CCNCC3)c2)cnc1N)c1c(Cl)ccc(F)c1Cl [Crizotinib] (partner 1 µM) : 0.889

Measured relative viability, CCN(CC)CCCCNc1ncc2cc(-c3cc(OC)cc(OC)c3)c(NC(=O)NC(C)(C)C)nc2n1 + O=C(CCCCCCC(=O)Nc1ccccc1)NO [Vorinostat] (partner 1 µM) : 0.698

Measured relative viability, O=c1cc(N2CCOCC2)oc2c(-c3cccc4c3sc3ccccc34)cccc12 + C[C@@H](Oc1cc(-c2cnn(C3CCNCC3)c2)cnc1N)c1c(Cl)ccc(F)c1Cl [Crizotinib] (partner 1 µM) : 1.01

---

Test system: NCI-H441
test_description: relative viability (nuclei count vs DMSO), 5 days (fraction); higher = more cells survive
run_parameters: first compound 2 µM
test_readout: relative viability

Measured relative viability, COCC1(CO)C(=O)C2CCN1CC2 (stereo not given) [PRIMA-1MET] + O=C(c1cc(Cc2n[nH]c(=O)c3ccccc23)ccc1F)N1CCN(C(=O)C2CC2)CC1 [Olaparib] (partner 8 µM) : 0.615

Measured relative viability, COCC1(CO)C(=O)C2CCN1CC2 (stereo not given) [PRIMA-1MET] + N=C(N)NC(=N)NCCc1ccccc1 [Phenformin] (partner 250 µM) : 0.838

Measured relative viability, COCC1(CO)C(=O)C2CCN1CC2 (stereo not given) [PRIMA-1MET] + COc1cccc2cc(-c3nc([C@H]4CC[C@H](C(=O)O)CC4)n4ncnc(N)c34)[nH]c12 [OSI-027] (partner 0.5 µM) : 0.663

Measured relative viability, COCC1(CO)C(=O)C2CCN1CC2 (stereo not given) [PRIMA-1MET] + C[C@@H](Oc1cc(-c2cnn(C3CCNCC3)c2)cnc1N)c1c(Cl)ccc(F)c1Cl [Crizotinib] (partner 1 µM) : 0.646

Measured relative viability, COCC1(CO)C(=O)C2CCN1CC2 (stereo not given) [PRIMA-1MET] + Cc1cc(Nc2cc(N3CCN(C)CC3)nc(Sc3ccc(NC(=O)C4CC4)cc3)n2)n[nH]1 [Tozasertib] (partner 0.1 µM) : 0.77

---

Test system: NCI-H1975
test_description: relative viability (nuclei count vs DMSO), 5 days (fraction); higher = more cells survive
run_parameters: first compound 0.03162 µM
Record form. Attribute: relative viability. Fill in for each entry.
Keep the answer to the number alone.

Entry O=c1cc(N2CCOCC2)oc2c(-c3cccc4c3sc3ccccc34)cccc12 + CS(=O)(=O)N1CCN(Cc2cc3nc(-c4cccc5[nH]ncc45)nc(N4CCOCC4)c3s2)CC1 [Pictilisib] (partner 1 µM) ; assay system NCI-H1975; relative viability recorded at 0.307

Entry CCN(CC)CCCCNc1ncc2cc(-c3cc(OC)cc(OC)c3)c(NC(=O)NC(C)(C)C)nc2n1 + CS(=O)(=O)N1CCN(Cc2cc3nc(-c4cccc5[nH]ncc45)nc(N4CCOCC4)c3s2)CC1 [Pictilisib] (partner 1 µM) ; assay system NCI-H1975; relative viability recorded at 0.277

Entry CCN(CC)CCCCNc1ncc2cc(-c3cc(OC)cc(OC)c3)c(NC(=O)NC(C)(C)C)nc2n1 + CS(=O)(=O)CCNCc1ccc(-c2ccc3ncnc(Nc4ccc(OCc5cccc(F)c5)c(Cl)c4)c3c2)o1 [Lapatinib] (partner 2 µM) ; assay system NCI-H1975; relative viability recorded at 0.882

Entry O=c1cc(N2CCOCC2)oc2c(-c3cccc4c3sc3ccccc34)cccc12 + C[C@]1(O)C[C@@H](c2nc(-c3ccc4ccc(-c5ccccc5)nc4c3)c3c(N)nccn32)C1 [Linsitinib] (partner 1 µM) ; assay system NCI-H1975; relative viability recorded at 0.922

---

System: ABC-1
test_description: relative viability (nuclei count vs DMSO), 5 days (fraction); higher = more cells survive
run_parameters: first compound 2.53 µM
Record form. Attribute: relative viability. Fill in for each entry.
Keep the answer to the number alone.

Measured relative viability, O=c1cc(-c2cccc3c2Sc2ccccc2S3)oc(N2CCOCC2)c1 + O=C(CCCCCCC(=O)Nc1ccccc1)NO [Vorinostat] (partner 1 µM) : 1.15

Measured relative viability, COc1nc(C)cnc1NS(=O)(=O)c1cccnc1-c1ccc(-c2nnco2)cc1 [Zibotentan] + N=C(N)NC(=N)NCCc1ccccc1 [Phenformin] (partner 250 µM) : 0.227

Measured relative viability, COc1nc(C)cnc1NS(=O)(=O)c1cccnc1-c1ccc(-c2nnco2)cc1 [Zibotentan] + CCNC(=O)c1noc(-c2cc(C(C)C)c(O)cc2O)c1-c1ccc(CN2CCOCC2)cc1 [Luminespib] (partner 0.01 µM) : 0.696

Measured relative viability, O=c1cc(-c2cccc3c2Sc2ccccc2S3)oc(N2CCOCC2)c1 + Cc1cc(Nc2cc(N3CCN(C)CC3)nc(Sc3ccc(NC(=O)C4CC4)cc3)n2)n[nH]1 [Tozasertib] (partner 0.1 µM) : 0.181

Measured relative viability, COc1nc(C)cnc1NS(=O)(=O)c1cccnc1-c1ccc(-c2nnco2)cc1 [Zibotentan] + Cc1nc(Nc2ncc(C(=O)Nc3c(C)cccc3Cl)s2)cc(N2CCN(CCO)CC2)n1 [Dasatinib] (partner 0.075 µM) : 0.556

Measured relative viability, COc1nc(C)cnc1NS(=O)(=O)c1cccnc1-c1ccc(-c2nnco2)cc1 [Zibotentan] + CS(=O)(=O)CCNCc1ccc(-c2ccc3ncnc(Nc4ccc(OCc5cccc(F)c5)c(Cl)c4)c3c2)o1 [Lapatinib] (partner 2 µM) : 1.28

Measured relative viability, O=c1cc(-c2cccc3c2Sc2ccccc2S3)oc(N2CCOCC2)c1 + C[C@]1(O)C[C@@H](c2nc(-c3ccc4ccc(-c5ccccc5)nc4c3)c3c(N)nccn32)C1 [Linsitinib] (partner 1 µM) : 0.711

Measured relative viability, COc1nc(C)cnc1NS(=O)(=O)c1cccnc1-c1ccc(-c2nnco2)cc1 [Zibotentan] + C[C@]1(O)C[C@@H](c2nc(-c3ccc4ccc(-c5ccccc5)nc4c3)c3c(N)nccn32)C1 [Linsitinib] (partner 1 µM) : 0.822

Measured relative viability, O=c1cc(-c2cccc3c2Sc2ccccc2S3)oc(N2CCOCC2)c1 + Cc1nc(NC(=O)N2CCC[C@H]2C(N)=O)sc1-c1ccnc(C(C)(C)C(F)(F)F)c1 [Alpelisib] (partner 2 µM) : 0.901

Measured relative viability, COc1nc(C)cnc1NS(=O)(=O)c1cccnc1-c1ccc(-c2nnco2)cc1 [Zibotentan] + Nc1ncn([C@H]2C[C@H](O)[C@@H](CO)O2)c(=O)n1 [Decitabine] (partner 2 µM) : 1.06

Measured relative viability, O=c1cc(-c2cccc3c2Sc2ccccc2S3)oc(N2CCOCC2)c1 + O=C(c1cc(Cc2n[nH]c(=O)c3ccccc23)ccc1F)N1CCN(C(=O)C2CC2)CC1 [Olaparib] (partner 8 µM) : 0.777
